B1: TPR t1 (parent)
chain: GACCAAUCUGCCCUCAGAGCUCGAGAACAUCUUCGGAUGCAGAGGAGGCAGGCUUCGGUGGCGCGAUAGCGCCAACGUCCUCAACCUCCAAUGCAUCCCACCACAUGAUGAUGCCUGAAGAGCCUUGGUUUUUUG

Variants of: B1
Assay: polymerase ribozyme fitness, log enrichment relative to wild type (log ratio); higher = more active; in vitro selection for triplet polymerase activity
measuredParameter: polymerase ribozyme fitness (log ratio)
# respond with the number and nothing more

See these solved cases before continuing.
- GACCACUCUGCCCUCAGAGCUCGAGAACAUCUUCGGAUGUAGAAGAGGCAGGCUUCGGUGGCGCGAUAGCGCCAACGUCCUCAACCUCCAAUGCAUCCCACCACAUGAUGAUGCCUGAAGUGCCUUGGUUUUUUG: 0.36
- GACCAAUCUGCCCUCAGAGCUCGAGAACAUGUUUGGAUGCAGAGGAGGCAGGCUUCGGUGGCGCGAUAUCGCCAACGCCCUCAACUUCCAAUGCAUCCCAACACAUGAUGAUUCCUGAAGAGCCUUGGUUUUUUG: -7.18
- GACCAAUCUGCCCUCAGAGCUCGAGAACAUCUUCGGAUGCAGAGGAGGCAGGCUUCGGAGGCGCGAUAGCGCCAACGUCCUCAAACUCCAAUGAAUCCCACCACAUGAUGAUGCCUGAAAAGCCUUGGUUUUUUG: -0.6
- GACCAAUCUGCCCUCAGAGCUCGAGAACAUCUUCGGAUGCAGAGGAGGCAGGCUUGGGUGGCGUGAUAGCGCCAACGUCAUCAACCUCCAAUGCAUCCCACCACAUGAUGAUGCCUGAAGAGCCUUGGUUUUUUG: -2.96
- GACCAAUCUGCCCUCAGAGCUCGAGAACAUCUUCGGAUGCAGAGGAGGCUGCCUUCGCUGGCGCGAUAGCGUCAACGUCCUCAACCUUCAAUGCAUCCCACCACAUGAUGAUGCCUGAAGAGCCUUGGUUUUUUG: -4.47

Task: Recorded polymerase ribozyme fitness (log ratio) for GACCGAUCUGCCCUCAGAGCUCGAGAACAUCUUCGGAUGCAGAGGAGGCAGGCUUCGGUGCCGCGAUAGCGCCAACGUCCUCAACCUCCAAUGCAUCCCACCAAAUGAUGAUGCCUGAAGAGCCUUGGUUUUUUG , please?
Result: -2.73

Task: Fill in the blank: the reported polymerase ribozyme fitness (log ratio) of GACCAAUCUGCCCUCAGAGCUGGAGAACAUCUUCGGAUGCAGAGGAGGCAGGCUUCGGUGGCGCGAUAGCGCCAACGACCUCAACCAACAAUGCAUCCCACAACAUGAUGAUGCCUGAAGAGCCUUGGUUUUUUG is ____.
Result: -5.54

Task: Endpoint output: polymerase ribozyme fitness (log ratio) of GACCAAUCUGCCUUCAGAGCUCGAGAACAUCUUCGGAUGCAGAGGAGGCAGGCUUCGGUGGCGCGAUAGCGCCAACGUCCUCAACUUCCAAUGCAUCCCACCACAUGAUGAUGCCUGAAGAGCCUUGGUUUUUUG . Value?
Result: -0.506

Task: I would be grateful if you could share the reported polymerase ribozyme fitness (log ratio) for GACCAAUCUGCCCUCAGAGCUCGAGAACAUCUUCGGAUGCAGAGGAGGCAGGCUUCGGUGGCGCGUUAGCGUCAACGUCCUCAACCUCCAAUGCAUCCCACCACAUGAUGAUGCGUGAAGAGCCUUGGUUUUUUG .
Result: -2.47

Task: Which polymerase ribozyme fitness (log ratio) is listed for GACCAAUCUUCCCUCAGAGCUCGAGAACAUCUUCGGAUGCAGAGGAGGCUGGCUUCGGUGGCGCGAUAGCGCCAACGUCCUCAACCUCCAAUGCAUCCCACCACAUGAUGAUGCCUGAAGAGCCUUGGUUUUUUG ?
Result: -1.65

Task: Which polymerase ribozyme fitness (log ratio) is listed for GACCAAUCUGCCCUCAGAGCUCGAGAACAUCUUCGGAUGUAGAGGAGGCAGGCUUCGGUGGCGCGAUAGCGCCAACGUCAUCAUCCUCCAAUGCAUCCCACCACAUGAUGAUGCCUGAAGAGCCUUGGUUUUUUG ?
Result: -4.52

Task: What value of polymerase ribozyme fitness (log ratio) has been reported for the following variant? GACCAAUCUGGCCUCAGAGCUCGGGAACAUCUUCGGAUGUAGAGGAGGCAGGCUUCGGUGGCGCGAUAGCGCCAACGUCCUCAACCUCCGAUGCAUCCCACCACAUGAUGAUGCCUGAAGAGCCUUGGUUAUUUG
Result: -2.57

Task: State the recorded polymerase ribozyme fitness (log ratio) for this entry: GACCAAUCUGUCCUCAGAGCUCGAGAACAUCUUCGGAUGCAGAGGAGGCAGGCUUAGGUGGCGCGAUAGCGCCAACGUCCUCAACCUCCAAUGCAUCCCACCAAAUGAUGAUGCGUGAAGAGCCUUGGUUUUUUG
Result: -6.27

Hello, the source for this data is the RNAGym collection of RNA variant scans (doi:10.1073/pnas.2313332121), in case you need it.
